assay: Human HepG2 cell viability assay in 384 well format; type: toxicity, cell-based; design: dose 125 nL, time 70.5 hour; concentration not given beside the values; details: HepG2 cells, read-out: Inhibition
observation type: cytotoxicity at 70.5 h (%)

> print(dat)
                                    compound  unit.abbrev  value.observed
 1  COc1cc(C2(C(=O)N3CCN(CC(C)O)CC3)CC2)ccc1C (centres undefined)            %            10.5
 2       Cc1csc(C(=O)NCCN2CCC(c3cccs3)CC2)c1            %            35.6
 3     c1ccc(CN2CCC3(CC2)CC(Oc2cccnc2)C3)nc1            %           -12.3
 4          COc1cnc(N2CCC(c3ncc[nH]3)CC2)nc1            %            17.8
 5  CN(Cc1cnn(C)c1)C(=O)NC1CCC(O)CC1 (centres undefined)            %           -7.28
 6            Cc1nc(CN(C)c2nccc(N(C)C)n2)cs1            %         -0.0733
 7  CCCN1CCCC2(CCN(S(=O)(=O)N3CCC(OC)CC3)C2)C1=O (centres undefined)            %           -1.84
 8  CN(CC(=O)NC1CCOCC1)C1CCCN(c2cccnn2)C1 (centres undefined)            %           -2.74
 9  CCN(c1ccc(C(=O)N2CCCC(C)C2)cc1)S(=O)(=O)CC (centres undefined)            %           -4.35
10     COCCN1C(=O)CCC12CCN(C(=O)CNC(C)=O)CC2            %           -8.47
11  CC1CCN(CC(O)CNc2ccc(Cl)cn2)CC1 (centres undefined)            %           -1.66
12        Cc1nc(CCCNC(=O)c2cc(F)ccc2O)n[nH]1            %           -9.81
13       Cc1nn(S(=O)(=O)c2ccc(Cl)cc2)c(C)c1C            %            38.4
14  CCNc1cc2c(nn1)CCN(C(=O)c1cc3cccc(C)c3o1)C2            %           -2.31

###

experiment: Human HepG2 cell viability assay in 384 well format; format: toxicity, cell-based; set-up: dose 125 nL, time 70.5 hour; concentration not given beside the values; details: HepG2 cells, read-out: Inhibition
observation type: cytotoxicity at 70.5 h (%)

> print(dat)
                                    molecule  unit.abbrev  value.observed
 1  O=C(c1ccc[nH]1)N1CCCC2(CCN(c3ccsc3)C2=O)C1 (stereo unspecified)            %           -11.6
 2  CC(C)Cc1cc(C(=O)O)nc2[nH]c(=O)[nH]c(=O)c12            %           -14.3
 3  Cc1ccc(OCC(O)CN(C)CC(=O)NC(C)C)c(C)c1 (stereo unspecified)            %            3.84
 4  Cc1cn2c(n1)CCC(NC(=O)c1[nH]nc(C)c1Br)C2 (stereo unspecified)            %            13.2
 5  Cc1cnn(CC2CCCN2C(=O)c2ccc(Cl)cc2F)c1 (stereo unspecified)            %           -1.79
 6  Cc1nc(NCC(O)CN2CCCCCC2)c2c(C)nn(C)c2n1 (stereo unspecified)            %           -8.64
 7  Cc1cccc(C(=O)NCC(O)c2ccc(F)cc2F)c1 (stereo unspecified)            %          -0.893
 8  O=C(COC1CCCC1)N1C[C@@H]2COC[C@]2(COc2cccnc2)C1            %            3.14
 9  Cc1nc2cc(F)cc(C(=O)N3CCN(CC(C)O)CC3)c2nc1C (stereo unspecified)            %            -9.3
10    CCn1cc(CN2CCCN(C(=O)c3cc(C)no3)CC2)cn1            %           -2.69
11  Cc1cccc(CNC(=O)Nc2ccn(CCCC(=O)N(C)C)n2)c1            %            -7.9
12  COC[C@@]12CCC[C@@H]1CN(C(=O)COc1ccccc1OC)C2            %           -3.63
13  Cc1nc(CCNC(=O)C2CC(=O)N(C(C)C)C2)sc1C (stereo unspecified)            %           -10.3
14  O=C(c1cccnc1)N1CCC2(CC1)CCN(Cc1ccccn1)C2=O            %           -9.02
15      CCc1noc(-c2cccc(NC(=O)C(C)(C)C)c2)n1            %           -11.2
16  O=C(c1ccc(C2CCCN2C(=O)c2ccoc2)s1)N1CCOCC1 (stereo unspecified)            %           -1.44
17  CS(=O)(=O)N1CCO[C@@H]2CN(C(=O)c3ccnnc3)C[C@@H]2C1            %           -2.42
18              CCCc1cc(CN(C)C2CCSCC2)n[nH]1            %           0.588
19  CC(C)(N)C(=O)N1CCCC(C(=O)c2ccc(C(C)(C)C)cc2)C1 (stereo unspecified)            %            -3.3
20     Cn1nc(COc2cncnc2)c2c1CCN(Cc1ccccn1)C2            %            6.46
21  O=C(Nc1cccnc1)c1nn(C2CCS(=O)(=O)C2)c2c1CCCC2 (stereo unspecified)            %           -23.7

Origin of values: ChEMBL document CHEMBL3507680
